Attribution: patent US20140235701

# system.tested: NGF (nerve growth factor) (Homo sapiens, UniProt P01138 P01138:122-241)
# Sequence (P01138 122-241, one chain of several): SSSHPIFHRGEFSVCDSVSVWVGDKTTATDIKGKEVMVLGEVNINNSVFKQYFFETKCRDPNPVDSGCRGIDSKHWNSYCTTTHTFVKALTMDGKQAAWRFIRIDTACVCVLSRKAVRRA
# experimental.details: cell_activity; neurite; TF-1 0.051
# test.parameters: tags: R&D Systems; chain copies: 2
readout.name: IC50 (nM)

# binder, readout.name, measured.number
measured = [
    ("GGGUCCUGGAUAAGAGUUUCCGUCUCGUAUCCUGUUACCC (ssRNA, as 82(1) except 2'-OMe C6) [SEQ ID NO: 82(3)]", "IC50", 0.255),
]
